# ASSAY TARGET: T1, Human OSM (human, UniProt P13725 26-221)
# T1 construct: Recombinant human OSM; also called hOSM; human Oncostatin M
# T1 sequence: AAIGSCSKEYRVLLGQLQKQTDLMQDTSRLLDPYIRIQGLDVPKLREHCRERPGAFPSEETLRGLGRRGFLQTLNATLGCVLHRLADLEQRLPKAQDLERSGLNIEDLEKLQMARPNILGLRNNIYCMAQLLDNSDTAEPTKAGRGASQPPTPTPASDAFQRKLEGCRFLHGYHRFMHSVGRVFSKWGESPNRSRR
# METHOD DESCRIPTION: BIAcore kinetics, purified antibody
# koff per entry
Note: unit s⁻¹ is implicit; provide only the numeric part.

Humanised 10G8 H0(IGHV3-23)L1 (antibody, human IgG1, kappa, V domains shown, IgG1 kappa; also called H0(huCDRH1)L1; H0 (CDRH1 IGHV3_23) L1) VH: EVQLVESGGGLVQPGGSLRLSCAASGFTFSSYAMSWVRQAPGKGLEWVATISDGGSFTYYLDNVRGRFTISRDNAKNSLYLQMNSLRAEDTAVYYCARDVGHTTFWYFDVWGRGTLVTVSS VL: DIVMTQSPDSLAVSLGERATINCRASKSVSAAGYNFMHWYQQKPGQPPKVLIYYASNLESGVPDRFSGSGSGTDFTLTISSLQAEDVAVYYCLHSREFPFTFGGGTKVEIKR :: 9.65e-05
15E10h, non-competitive anti-OSM humanised antibody (antibody, human IgG1, kappa, V domains shown, also called Humanised 15E10; humanised 15E10) VH: QVQLVESGGGVVQPGRSLRLSCAASGFSLTNYGVHWVRQAPGKGLEWVAVIWRGGSTDYNAAFMSRFTISKDNSKNTLYLQMNSLRAEDTAVYYCAKSPNSNFYWYFDVWGRGTLVTVSS VL: EIVLTQSPATLSLSPGERATLSCSGSSSVSYMYWYQQKPGQAPRLLIEDTSNLASGIPARFSGSGSGTDYTLTISNLEPEDFAVYYCQQWSSYPPTFGQGTKLEIKR :: 0.000649
Humanised 10G8 H0L1 (antibody, human IgG1, kappa, V domains shown, IgG1 kappa; mature H0 heavy chain and mature L1 light chain; also called Humanised 10G8 H0L1 parent) VH: EVQLVESGGGLVQPGGSLRLSCAASGFTFSNYAMSWVRQAPGKGLEWVATISDGGSFTYYLDNVRGRFTISRDNAKNSLYLQMNSLRAEDTAVYYCARDVGHTTFWYFDVWGRGTLVTVSS VL: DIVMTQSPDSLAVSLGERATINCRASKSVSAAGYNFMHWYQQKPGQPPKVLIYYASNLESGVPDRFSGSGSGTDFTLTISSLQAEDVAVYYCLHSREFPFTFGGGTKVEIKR :: 8.9e-05

# evaluate next
10G8 chimaera (antibody, human IgG1, kappa, V domains shown, Mouse V regions on human gamma 1 wild type and human kappa constant regions; the entries called VH/VL domain (chimera) are full chains; also called 10G8 chimera; 10G8 Chimæra) VH: EMQLVESGEGLVEPGGSLKLSCAASGFTFSNYAMSWVRQTPEKSLEWVATISDGGSFTYYLDNVRGRFTISRDNAKNNLYLQMSHLKSDDTAMYYCARDVGHTTFWYFDVWGSGTLVTVSS VL: DIVLTQSPVFLVVSLGQRATISCRASKSVSAAGYNFMHWYQQKPGQPPKVLIKYASNLESGVPARFSGSGSGTDFTLNIHPVEEEDAVTYYCLHSREFPFTFGGGTNLEIKR has a reported koff of 7.87e-05
